Data provenance: the supplement of paper PMC10065799

Below: a set of entries, each annotated with reported phosphorylation enrichment.
# System: Fer (mouse)
# METHOD SUMMARY: phosphorylation enrichment, bacterial display (enrichment ratio); higher = better substrate or ligand; peptides without Tyr show the background;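 note: 11-residue human phosphosite peptides and single-mutation variants displayed on the E. coli surface, counted by deep sequencing, each peptide's frequency after selection divided by its frequency in the unselected input library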;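 note: frequency after pTyr selection over input frequency; kinase dosed for 20-30% of maximal phosphorylation in three min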
VALUE TYPE: phosphorylation enrichment

# SEQUENCE, EXPERIMENTAL TARGET, VALUE TYPE, READOUT VALUE
data = [
    ("RGEAVYSRDCV [XPC_Y676]", "Fer (mouse)", "phosphorylation enrichment", 0.472),
    ("TEAEPYYRSLR [NPHS1_Y1138]", "Fer (mouse)", "phosphorylation enrichment", 0.425),
    ("LAARFYNWVCF [FLT4_Y1231_S1235C_YF]", "Fer (mouse)", "phosphorylation enrichment", 2.79),
    ("PGQAAYQKVVA [HBB_Y131_V127G]", "Fer (mouse)", "phosphorylation enrichment", 0.49),
    ("QYPDIYAREEV [CRX_Y67_V66I]", "Fer (mouse)", "phosphorylation enrichment", 1.29),
    ("QVKEQYQDVPM [PKP2_Y659_K654Q]", "Fer (mouse)", "phosphorylation enrichment", 0.86),
    ("AYGNLYGSRKQ [YIPF7_Y59]", "Fer (mouse)", "phosphorylation enrichment", 0.367),
    ("NGSKAYAYVHF [PABPC5_Y147_G146A]", "Fer (mouse)", "phosphorylation enrichment", 0.637),
    ("LSSETYVKSFT [F5_Y2149_M2148T_YF]", "Fer (mouse)", "phosphorylation enrichment", 0.511),
    ("DLTQDYEEWKR [ORC6_Y232]", "Fer (mouse)", "phosphorylation enrichment", 0.715),
    ("STFVPCEIKVQ [L1CAM_Y784_Y784C]", "Fer (mouse)", "phosphorylation enrichment", 0.669),
    ("LFNQDYPIHCV [GATM_Y227_S231C_YF]", "Fer (mouse)", "phosphorylation enrichment", 1.03),
    ("YRVAGYETQGG [TIA1_Y383]", "Fer (mouse)", "phosphorylation enrichment", 0.351),
    ("CDGKEYDPVEA [MAPRE2_Y167_Y162C]", "Fer (mouse)", "phosphorylation enrichment", 0.65),
    ("GDGRFYMKEAI [PGM1_Y66]", "Fer (mouse)", "phosphorylation enrichment", 0.549),
    ("QCTSAHPLQPE [NANS_Y188_Y188H]", "Fer (mouse)", "phosphorylation enrichment", 0.726),
    ("EALDFCGEVRT [PTEN_Y155_Y155C]", "Fer (mouse)", "phosphorylation enrichment", 0.674),
    ("FSQETYYRVSN [ABCD1_Y180_Q178E]", "Fer (mouse)", "phosphorylation enrichment", 0.492),
    ("VTQEQYELYCE [CBL_Y368]", "Fer (mouse)", "phosphorylation enrichment", 0.887),
    ("QPSALYEDRYL [ASS1_Y83_S79P]", "Fer (mouse)", "phosphorylation enrichment", 6.74),
    ("KDHPDYKFQLR [SOX10_Y171_P175L_YF]", "Fer (mouse)", "phosphorylation enrichment", 0.65),
    ("FSPFDYQPCLA [TNS1_Y798_YF]", "Fer (mouse)", "phosphorylation enrichment", 0.643),
    ("QRIHDYFEHRF [HCN4_Y554_YF]", "Fer (mouse)", "phosphorylation enrichment", 0.872),
    ("CSKRFYQLTKL [AR_Y858_R855K]", "Fer (mouse)", "phosphorylation enrichment", 0.492),
    ("RRGTGYTLPLP [MAGEC3_Y152_S155P]", "Fer (mouse)", "phosphorylation enrichment", 0.424),
    ("WGTAEYDSVVA [MAP1A_Y1883]", "Fer (mouse)", "phosphorylation enrichment", 1.57),
    ("QEGPEYWDQQT [HLA-A_Y83_E87Q]", "Fer (mouse)", "phosphorylation enrichment", 0.884),
    ("NQILPYIEELV [PPP2R1B_Y341_K343E]", "Fer (mouse)", "phosphorylation enrichment", 0.931),
    ("DAVKHYMQFQK [CNGA2_Y395_R399Q]", "Fer (mouse)", "phosphorylation enrichment", 0.424),
    ("HCHEGYILHGA [SVEP1_Y2921]", "Fer (mouse)", "phosphorylation enrichment", 0.45),
    ("RGVTRYIFNRE [HLA-DQB1_Y62_Y58G_YF]", "Fer (mouse)", "phosphorylation enrichment", 0.886),
    ("DCAAIYGNEPE [AKR1A1_Y50]", "Fer (mouse)", "phosphorylation enrichment", 0.672),
    ("EEGNPYYSGAR [MCCC2_Y520_S523G]", "Fer (mouse)", "phosphorylation enrichment", 0.425),
    ("ERSMSYSDESR [SMG1_Y143]", "Fer (mouse)", "phosphorylation enrichment", 0.485),
    ("SISFDYCRVPM [BST2_Y8_T4I_YF]", "Fer (mouse)", "phosphorylation enrichment", 0.533),
    ("EKMWTYMRSAE [GRIA4_Y695]", "Fer (mouse)", "phosphorylation enrichment", 0.359),
    ("ELTAKYLNYYQ [P3H4_Y181]", "Fer (mouse)", "phosphorylation enrichment", 0.445),
    ("MHYSNYVSKGS [PDGFRA_Y849_D846Y]", "Fer (mouse)", "phosphorylation enrichment", 0.458),
    ("KKIMGYSIRTI [IDS_Y490_I485K]", "Fer (mouse)", "phosphorylation enrichment", 0.394),
    ("VFSTDYFRVGG [NTRK2_Y706_YF]", "Fer (mouse)", "phosphorylation enrichment", 0.499),
    ("WAAQRYGRELR [BAD_Y110]", "Fer (mouse)", "phosphorylation enrichment", 0.398),
    ("EDGRLYAVKCS [PKMYT1_Y136_R140C]", "Fer (mouse)", "phosphorylation enrichment", 0.529),
    ("DLEKTYNTFRS [B4GALNT2_Y538_A533D_YF]", "Fer (mouse)", "phosphorylation enrichment", 0.391),
    ("WSRAMYPDLGP [STARD8_Y330]", "Fer (mouse)", "phosphorylation enrichment", 0.435),
    ("QCQLKYSETPF [SIX6OS1_Y129_Y125C]", "Fer (mouse)", "phosphorylation enrichment", 0.798),
    ("WYQTKYEELQV [KRT6B_Y360_I365V]", "Fer (mouse)", "phosphorylation enrichment", 0.568),
    ("ESLRRYLENGK [HLA-B_Y195_W191S]", "Fer (mouse)", "phosphorylation enrichment", 0.454),
    ("PESILYRKFTT [NTRK1_Y701]", "Fer (mouse)", "phosphorylation enrichment", 0.818),
    ("LKKKQYTSIHH [APP_Y728]", "Fer (mouse)", "phosphorylation enrichment", 0.688),
    ("QISSNYDDAMQ [ZNF281_Y531]", "Fer (mouse)", "phosphorylation enrichment", 0.533),
    ("KVQVSYKGETK [HSPA1A_Y107]", "Fer (mouse)", "phosphorylation enrichment", 0.378),
    ("GRSTFYWPSPR [GAGE12J_Y10_R13S_YF]", "Fer (mouse)", "phosphorylation enrichment", 0.399),
    ("EAIAKYDLKAT [GRB2_Y7_F9L]", "Fer (mouse)", "phosphorylation enrichment", 0.443),
    ("EQKRYYNAMKK [SCN5A_Y1495_K1493R]", "Fer (mouse)", "phosphorylation enrichment", 0.399),
    ("FEDALYTVLHR [UNC13D_Y61_YF]", "Fer (mouse)", "phosphorylation enrichment", 11.4),
    ("ETELPYQELQG [TYROBP_Y91_S89L]", "Fer (mouse)", "phosphorylation enrichment", 0.997),
    ("TVHCDYLNISH [TAF1L_Y1385_P1389S]", "Fer (mouse)", "phosphorylation enrichment", 0.546),
]

----------
# EXPERIMENTAL TARGET: FGFR3 (UniProt P22607)
# Sequence (P22607 whole entry, looked up): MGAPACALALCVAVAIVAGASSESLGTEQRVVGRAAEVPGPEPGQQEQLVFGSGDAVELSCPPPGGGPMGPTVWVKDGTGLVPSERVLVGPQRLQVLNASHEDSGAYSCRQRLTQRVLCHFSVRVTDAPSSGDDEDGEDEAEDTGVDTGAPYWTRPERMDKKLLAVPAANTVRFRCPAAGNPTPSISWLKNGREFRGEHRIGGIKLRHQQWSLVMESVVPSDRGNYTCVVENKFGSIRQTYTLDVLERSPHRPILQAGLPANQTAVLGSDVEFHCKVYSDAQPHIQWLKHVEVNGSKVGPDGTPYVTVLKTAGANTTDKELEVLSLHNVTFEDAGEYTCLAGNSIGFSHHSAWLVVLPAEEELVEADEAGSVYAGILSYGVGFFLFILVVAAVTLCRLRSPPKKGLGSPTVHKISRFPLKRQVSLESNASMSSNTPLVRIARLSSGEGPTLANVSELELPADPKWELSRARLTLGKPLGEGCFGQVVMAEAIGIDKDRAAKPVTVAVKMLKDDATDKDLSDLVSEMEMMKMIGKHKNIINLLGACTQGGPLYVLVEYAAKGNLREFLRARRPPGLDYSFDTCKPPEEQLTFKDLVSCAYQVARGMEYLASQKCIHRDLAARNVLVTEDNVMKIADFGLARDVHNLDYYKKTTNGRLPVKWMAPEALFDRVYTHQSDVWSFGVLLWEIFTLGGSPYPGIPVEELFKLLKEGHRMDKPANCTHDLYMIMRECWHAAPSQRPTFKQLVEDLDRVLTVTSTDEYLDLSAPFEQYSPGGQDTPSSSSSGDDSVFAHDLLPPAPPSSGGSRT
# METHOD SUMMARY: phosphorylation enrichment, bacterial display (enrichment ratio); higher = better substrate or ligand; peptides without Tyr show the background
Classify by measured phosphorylation enrichment: criterion met if it is equal to or exceeds 0.8, criterion not met if it is smaller.

# SEQUENCE, CLASS
rows = [
    ("PGLKGYPGLSG [COL4A2_Y306_R304K]", "criterion not met"),
    ("AKKKMYSLKTK [AGXT_Y231_R233L]", "criterion met"),
    ("SSNLFYRWLTA [CNGA3_Y169_YF]", "criterion not met"),
    ("EIVFVYVKKRS [DNAI2_Y7_YF]", "criterion not met"),
    ("FRNSLYAPDYS [FAM92A_Y226]", "criterion not met"),
    ("SNPAFYVLEGV [INPPL1_Y987_N982S_YF]", "criterion not met"),
    ("VSFGEYRFRSV [CFTR_Y515_D513G_YF]", "criterion not met"),
    ("YSKTQYNQVPR [CXADR_Y318_S323R]", "criterion not met"),
    ("TCRPPYFHRNC [HGD_Y333_F329C_YF]", "criterion not met"),
    ("ETELPYQELQG [TYROBP_Y91_S89L]", "criterion met"),
    ("EFNLMYDGAKE [IRF6_Y97_T100A]", "criterion met"),
    ("GHLFAYDWISI [BEST1_Y227_YF]", "criterion met"),
    ("KALSLYTKLMN [STAM_Y371_E366K]", "criterion met"),
    ("RFLKDYGEFEV [GINS1_Y156_C152Y_YF]", "criterion met"),
    ("MCITRYERESQ [PRNP_Y218_Q217R]", "criterion not met"),
    ("LIDTVYSSSSA [OR4C12_Y71]", "criterion met"),
    ("YKEDPYLVVNP [MCM6_Y810_E806K]", "criterion met"),
    ("RLEGVYGNNID [PTEN_Y46_R47G]", "criterion not met"),
    ("EPAVLYNLKDR [MYH7_Y103]", "criterion not met"),
    ("CNPLRYPVLMS [OR2T1_Y182]", "criterion not met"),
    ("MTFQNYGQALF [FAM20C_Y279]", "criterion not met"),
    ("KVQVSYKGETK [HSPA1A_Y107]", "criterion not met"),
    ("TVHPGYGFLSE [PCCA_Y143_A138T]", "criterion not met"),
    ("NGSKAYAYVHF [PABPC5_Y147_G146A]", "criterion not met"),
    ("GNHISYYQSDG [CACNA1C_Y1757_V1755I]", "criterion not met"),
    ("INQGPYENRSV [ATP6V1B1_Y462]", "criterion not met"),
    ("EEQKKNFNAMK [SCN5A_Y1494_Y1494N_YF]", "criterion not met"),
]
